# test target: T1, monkey PD-L1 (Cat. #90251-C08H, Sino Biological) (monkey (cyno), UniProt G7PSE7 19-239)
# T1 construct: Bought recombinant protein used in the Biacore test; also called Monkey (cyno) PD-L1; Cyno PDL1
# T1 sequence (G7PSE7 entry or part of it C08H C08H): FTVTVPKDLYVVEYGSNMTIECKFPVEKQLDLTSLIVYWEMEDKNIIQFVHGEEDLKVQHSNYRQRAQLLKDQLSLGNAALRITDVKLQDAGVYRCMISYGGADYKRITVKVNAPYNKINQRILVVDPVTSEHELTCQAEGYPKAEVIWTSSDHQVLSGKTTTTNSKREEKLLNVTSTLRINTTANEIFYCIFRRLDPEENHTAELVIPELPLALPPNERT
# test description: SPR, Biacore X100, 1:1 Langmuir
measure name: koff (s⁻¹)
Write down the numeric answer in s⁻¹ and omit the unit.

So what's the measured koff for this one? H12L64 (antibody, human IgG1, kappa, V domains shown, from the HRP00052 mutant library; also called 24D5 H12 and 24D5 L64) VH: QVQLVQSGAEVKKPGASVKVSCKASGYTFTSYWMHWVRQAPGQGLEWMGRITPSSGFAMYNEKFKNRVTMTRDTSTSTVYMELSSLRSEDTAVYYCARGGSSYDYFDYWGQGTTVTVSS VL: DIVLTQSPASLAVSPGQRATITCRASESVSIHGTHLMHWYQQKPGQPPKLLIYVASYAASGVPARFSGSGSGTDFTLTINPVEAEDTANYYCQQSFEDPLTFGQGTKLEIKR 8.38e-05
